system: SNB-75 CNS; test: NCI tumour cell line growth inhibition, 48 h
Classify by measured TGI: 1 if it is equal to or exceeds 30 µM, 0 if it is smaller.

Below, 6 compounds whose answers are already recorded.
S=P(C1CCCCC1)(C1CCCCC1)C(c1cccnc1)N1CCCC1 (stereo not given): 1
COc1ccc(C2CC(c3ccc4ccccc4c3)=NN2/C=C2\SC(=S)N(NC(=O)Cc3ccccc3Nc3c(Cl)cccc3Cl)C2=O)cc1 (stereo not given): 0
COc1cccc(-c2cc(C(=O)Nc3ccc(Cl)cc3)nc(N)n2)c1: 1
COc1ccc(NC(=O)COc2ccccc2)c(C(N)=O)c1: 0
O=[N+]([O-])c1ccc(CSc2c3ccccc3nc3ccccc23)cc1: 1
O=P1(N(CCCl)CCCl)Oc2c(Cl)cc(Cl)c(Cl)c2Cc2c(Cl)c(Cl)cc(Cl)c2O1: 1

Query: Exam item: decide whether the reported TGI for O=S(Nc1ccccc1)c1ccccc1Oc1ccccc1 (stereo not given) is at least 30 µM.
Response: 1

Query: TGI >= 30 µM for c1ccc(C2(c3ccccc3)S/C(=C3/SC(c4ccccc4)(c4ccccc4)c4ccccc43)c3ccccc32)cc1 ?
Response: 1

Query: Confirm if TGI reported for the compound COc1ccc(OC)c2sc(N3C(=O)/C(=C/c4ccc(SC)cc4)N=C3c3ccccc3)nc12 is 30 µM or above.
Response: 1

Query: Could you verify whether the entry CCOP(=O)(OCC)c1cc2cc(O)ccc2oc1=O shows TGI of no less than 30 µM?
Response: 1

###

system: OVCAR-8 ovarian; test: NCI tumour cell line growth inhibition, 48 h
assay metric: TGI

OCCNC(=S)Nc1ccc(-c2nc(N3C[C@H]4CC[C@@H](C3)O4)c3cccn3n2)cc1: 3.16 µM
CCC1CCC2C3CC=C4CC(OC(C)=O)C(N)CC4(C)C3CCC12C (stereo not given): 6.75 µM
O=C1/C(=N/N=C(c2ccccc2)c2ccccc2)c2ccccc2-c2ccccc21: > 100 µM
O=C1CC2(CCN(CC3COc4ccccc4O3)CC2)C(=O)N1N1CCCCCC1 (stereo not given): > 100 µM
CN1C(=O)C(C)(C)NS1(=O)=O: > 100 µM

Query: Given the molecule C[C@@]1([C@H](OC(=O)c2cccc3ccccc23)C(N)=O)CO1 , write its reported TGI.
Response: 22.7 µM

Query: Consider the molecule CC(C)NC1CCCCC2c3cc(F)ccc3[C@]12O (stereo not given in full) and give its recorded TGI.
Response: > 100 µM

Query: Specify TGI for CN(C)C=O.CN(C)C=O.CN1C(C(=O)Nc2ccccn2)=C([O-])c2ccccc2S1(=O)=O.CN1C(C(=O)Nc2ccccn2)=C([O-])c2ccccc2S1(=O)=O.[Cu+2] and stop.
Response: > 100 µM

Query: Name the recorded TGI of the item Clc1ccc(/C=c2\nc(-c3ccccc3)n3c2nc2ccccc23)cc1 in your answer.
Response: > 100 µM

Query: Quote TGI reported for COc1ccc(Nc2[nH]n(C3=Nc4ccccc4Sc4ccccc43)c(=O)c2C#N)cc1 please.
Response: > 100 µM

###

Here, each record is paired with measured TGI data.
tested on: SR leukemia; test: NCI tumour cell line growth inhibition, 48 h
Give just the numeric value; µM need not be written.

A selection of reference data follows.
CSC1=C(C(=O)N(COCC[Si](C)(C)C)c2ccccc2Br)CCC(C(C)(C)C)C1 (stereo unspecified): 11.7
Nc1nc2ccccc2c2[nH]c3ccccc3c12: 4.8
CCCCCCN(CCCCCC)C1=CC(=O)C(=O)c2ccccc21: 63.3
COc1cc2c(cc1OCCCOc1cc3c(cc1OC)C(=O)N1CC(F)(F)C[C@H]1C=N3)N=C[C@@H]1CC(F)(F)CN1C2=O: 0.508

Query: Note down TGI recorded for COc1ccc2c(c1)[n+]([O-])c(/C(C)=N/NC(N)=S)c(C)[n+]2[O-]
Response: 61.5

###

# maps each entry to its TGI
system: RXF 393 renal; assay: NCI tumour cell line growth inhibition, 48 h
Give just the numeric value; µM need not be written.

Answered cases to consult:
Cc1c(C)n(CC(O)CNC2CCCCC2C)c2ccccc12 (stereo not given): 23
COC(=O)C12OCC34C(CC5C(C)C6=CC(=O)OC6=CC5(C)C3C(O)C1O)OC(=O)C(OC(C)=O)C24 (stereo not given): 29
COc1cc2c(NCCN(C)C)nc3c4cc5c(cc4ccc3c2cc1OC)OCO5: 7.3

Query: Could you please provide reported TGI for O=c1[nH]ccc2nc(N3CCC(O)CC3)nc(Nc3ccc(N4CCOCC4)cc3)c12 ? Thanks!
Response: 7.5

###

system: MOLT-4 leukemia; assay: NCI tumour cell line growth inhibition, 48 h
assay metric: TGI

// known answers, use as guide
Cc1cc(Cl)ccc1NC(=O)C1C(=O)C(=O)N(c2ccc(Cl)cc2C)C1=O (stereo not given): > 100 µM
Cc1cccc(-c2cccc(COCc3cccc(-c4cccc(CO)n4)n3)n2)n1: > 50 µM
O=C(NCCN1CCOCC1)Nc1nc2ccc(Sc3nnc4ccc(-c5ccc(F)cc5)nn34)cc2s1: > 100 µM
Cc1ccc([N+]2=NC(c3ccc([N+](=O)[O-])cc3)=NN(c3ccccc3)C2)cc1: > 100 µM

Now for a further molecule.
Query: Tell us which TGI value is on record for COc1ccc(C(=C(C#N)C#N)c2ccc(OC)cc2)cc1
Response: > 100 µM

###

system: IGROV1 ovarian; assay: NCI tumour cell line growth inhibition, 48 h
assay metric: TGI

Please review the following examples before continuing.
CN(C)C=O.CN(C)C=O.CN1C(C(=O)Nc2ccccn2)=C([O-])c2ccccc2S1(=O)=O.CN1C(C(=O)Nc2ccccn2)=C([O-])c2ccccc2S1(=O)=O.[Cu+2]: > 100 µM
C[C@]12CC[C@H](OC(=O)Cc3ccc(N(CCCl)CCCl)cc3)CC1CC[C@@H]1C2CC[C@]2(C)NC(=O)CCC12 (some centres undefined): 30.5 µM

Query: Provide measured TGI value, entry: COc1ccc(NC(=O)COc2ccccc2)c(C(N)=O)c1
Response: > 100 µM

Query: Give me measured TGI, please, for this compound: COc1ccc2c3c(ccc2c1)NC(C(=O)O)CC3 (centres undefined)
Response: > 100 µM

###

We begin with a simple list: items and their reported TGI.
system: U251 CNS; test: NCI tumour cell line growth inhibition, 48 h

Before answering, review these 8 worked examples.
CC1(C)CCCC2(C)C3=C(CCC12)C(=O)OC3 (stereo unspecified): > 100 µM
COc1ccc2c(c1)OCC1=C2Oc2ccccc2C1: > 100 µM
Cc1nnc(N2C(=O)C(=Cc3ccc(Cl)cc3)N=C2c2ccc(Cl)cc2)nc1/C=C\c1ccc(N(C)C)cc1: > 100 µM
CN1CCN2c3ccccc3CC(C#N)(C#N)C2C1 (stereo unspecified): > 100 µM
O=C(O)c1[nH]c(=O)[nH]c(=O)c1CN1CCCCC1: > 100 µM
COC(=O)C12OCC34C(CC5C(C)C6=CC(=O)OC6=CC5(C)C3C(O)C1O)OC(=O)C(OC(C)=O)C24 (stereo unspecified): 57.8 µM
COc1ccc(C(=O)NNC(=O)c2nsc3ccccc23)cc1: > 100 µM
CCOC(=O)C1C(c2ccco2)C2(C#N)C(=N)OC1(C)C2(C#N)C#N (stereo unspecified): > 100 µM

Next compound, please.
Query: For U251 CNS, give the measured TGI of the entry CCOc1cccc2sc(N)nc12
Response: > 100 µM

###

system: HCT-15 colon; experiment: NCI tumour cell line growth inhibition, 48 h; in the data active means GI50 below about 0.43 µM; inactive means the rest
Return exactly one item of t for active, f for inactive

COc1cc2c(cc1OCCCOc1cc3c(cc1OC)C(=O)N1CC(F)(F)C[C@H]1C=N3)N=C[C@@H]1CC(F)(F)CN1C2=O: f

Query: What is the recorded call for this compound in the test? Nc1nc2ccccc2c2[nH]c3ccccc3c12
Response: f

Query: Hey, what did the test say about COc1ccccc1CN=C1NC(=O)/C(=C/c2ccc3ncccc3c2)S1 ?
Response: f

###

test system: HCC-2998 colon; assay: NCI tumour cell line growth inhibition, 48 h
assay metric: TGI (µM)
The answer is to be given in µM; state only the numeric part.

Study these solved cases before continuing.
C[C@@]1([C@H](OC(=O)c2cccc3ccccc23)C(N)=O)CO1: 18.2
Nc1nc(N)c2c(CCc3ccc(C(=O)N[C@@H](CCC(=O)O)C(=O)O)cc3)ccnc2n1: 0.0952

Query: Fill in reported TGI for this entry: CCCCCCCCCCCCCCCCC(=O)NCC(=O)NCC(=O)NC(Cc1ccccc1)C(=O)Oc1ccc([N+](=O)[O-])cc1 (centres undefined)
Response: 37.3

Query: For CN(C)CCn1c2c(c3ccccc31)CCc1ccccc1-2 , write its TGI.
Response: 16.7

###

tested on: RPMI-8226 leukemia; experiment: NCI tumour cell line growth inhibition, 48 h
Parameter threshold = 9 µM. Response is criterion met when TGI meets or exceeds it, else criterion not met.

Consider the worked cases shown below.
SCc1ccc(-c2ccc(CS)cc2)cc1: criterion met
Nc1nc(N)c2c(CCc3ccc(C(=O)N[C@@H](CCC(=O)O)C(=O)O)cc3)ccnc2n1: criterion met
COc1ccc2c(c1)C(=O)c1c-2n(CCCCl)c(=O)c2cc([N+](=O)[O-])ccc12: criterion not met
COc1cccc(-c2cc(=O)c3cc(C)c(C)c(C(=O)O)c3o2)c1: criterion met
CC(=O)NC1C(O)C(O)C(CO)OC1n1nc(SCc2ccccc2)c(=O)[nH]c1=O (stereo not given): criterion met

Query: Determine whether measured TGI meets or exceeds 9 µM for C=C(C)[C@@H]1CC[C@]2(C(=O)N3CCN(C)CC3)CC[C@]3(C)[C@H](CC[C@@H]4[C@@]5(C)C/C(=C/c6ccncc6)[C@H](O)C(C)(C)[C@@H]5CC[C@]43C)[C@@H]12
Response: criterion met

Query: Kindly determine if TGI recorded for CN(C)CCNC(=O)c1ccccc1Nc1c(Cl)cccc1Cl is above or exactly 9 µM.
Response: criterion met

Query: Decide: is the reported value of TGI for CC/C=C\C[C@H](O)C/C=C1/C(=O)C=C[C@@H]1C/C=C\CCCC(=O)OCCS(=O)(=O)c1ccccc1 equal to or greater than 9 µM?
Response: criterion not met

Query: # bool: TGI of [N-]=[N+]=CC(=O)OC1CCc2ccccc21 (stereo not given) >= 9 µM
Response: criterion met

Query: Reported TGI reaches at least 9 µM for COc1cccc(-c2cc(C(=O)Nc3ccc(Cl)cc3)nc(N)n2)c1 ?
Response: criterion met

Query: hey, is TGI for this one >= 9 µM? CC(=O)OC1COC(n2c(O)c(N=Nc3ccc([N+](=O)[O-])cc3)c3cc(Br)c([N+](=O)[O-])cc32)C(OC(C)=O)C1OC(C)=O (stereo not given)
Response: criterion met

Query: Form field: TGI at least 9 µM? Entry: Clc1cc2nc[nH]c2cc1Cl
Response: criterion met

Query: Given Nc1cc(N2CCOCC2)nc(=O)n1-c1ccccc1 , state whether its TGI is at least 9 µM.
Response: criterion met

Query: Is TGI at least 9 µM? Consider OCCNC(=S)Nc1ccc(-c2nc(N3C[C@H]4CC[C@@H](C3)O4)c3cccn3n2)cc1
Response: criterion not met

Query: Threshold query (TGI >= 9 µM) on Nc1c(C(=O)c2cccc(C(O)(CO)CO)c2)cnn1-c1ccc(F)cc1
Response: criterion met

Query: For this compound, is measured TGI 9 µM or higher? C=C1CC(COc2ccc3c(C)c(Cl)c(=O)oc3c2)(c2ccccc2)OC1=O (stereo not given)
Response: criterion not met

Query: Is reported TGI greater than or equal to 9 µM here: CCCCCCCCCCCCCCCCSS(C)(=O)=O
Response: criterion met

Query: Please tell me: is the compound Cc1cc(N2CCCCC2)nc(NCc2cc(Nc3ccnc4cc(Cl)ccc34)ccc2F)n1 at or over 9 µM in terms of TGI?
Response: criterion not met

Query: Could you tell me if the measured TGI of Cc1cc(N(CCC#N)CCC#N)ccc1/C=C(\NC(=O)/C=C/c1ccccc1)NC(=O)Nc1ccccc1C reaches 9 µM or more?
Response: criterion met

Ref: PubChem BioAssay (NCI)
